# credit: the supplement of paper PMC9170038

- Tested on: MS2 coat protein
- procedure-details: apparent KD of MS2 coat protein; higher = weaker reporter binding
- applied-conditions: Eterna round: R107; input ligand: arginine 13.2 mM
Reported apparent KD of MS2 coat protein by item:
Give the quantity in nM, number only.

Example entries begin here.
AAAUAAAUCACAUGAGGAUCACCCAUGGAUACCAGGCCUGGAAACAGCCCUUGGCAGCCACAUGAGGAUCACCCAUGUGCUAAAU [MAT - Exclusion Theophlline A - Mod of Eli - D2] = 98.4
UCGCUCUGGGUGGGAUCCGGAGAUGUGGAAGGAGCGCUGGAAACAGCAGGUAGGUCGCCAACGGACAUGAGGAUCACCCAUGUAC [Same State - Arginine A (Freestyle 18)] = 64.9
CGAACAUGAGGAUCACCCAUGUUAACCGAAGGAGCGGCGCAUAAGUCAGGUAGGUCGCGGUAGAUGAAAUAGAGCAGUGGUGACA [#01 Same State - Arginine A] = 24.4

Next, consider the following sequence.
I have this sequence here, ACUCGACCAUCAGCCAUUUGUGAAUCACGGCGAGGACCGGUACGGCCGCCACUCGACAUGAGGAUCACCCAUGUAAGACCGGUGU [vmullin3] , and I need its recorded apparent KD of MS2 coat protein. 24

====

- Test system: MS2 coat protein
- procedure-details: apparent KD of MS2 coat protein; higher = weaker reporter binding
- applied-conditions: Eterna round: R107; input ligand: none
metric-name: apparent KD of MS2 coat protein (nM)
A number alone suffices; assume nM.

Report apparent KD of MS2 coat protein for AGAGAGGCGCAUGAUACCAGCUUGGCCUAACAUGAGGAUCACCCAUGUCAAUGGGCCUUAAGCCCUUGGCAGCAUAGGGUGUCCU [Xeestixexe] tested on MS2 coat protein. 72.1

What measured apparent KD of MS2 coat protein is associated with ACAUGAGGAUCACCCAUGUGGCGAGUUGAUACCAGACCCGCACUAGUCCCUUGGCAGCAACUACGUGUGGGACACCCAUGUUAAG [qpqmullin] on MS2 coat protein? 57.6

Give apparent KD of MS2 coat protein (MS2 coat protein) of the following sequence: AGCUCGCAUCCUCUAGCGUCAAAGACGCGUCGAGGACCGGUACGGCCGCCACUCGACUUGAGGAUCACCCAGGUCAAAGCGAGCA [TrypAX 13 #SwitchBubble #AlternativeMS2 #MS2Late #CuTurnoff] 545

Hi! What's the reported apparent KD of MS2 coat protein for ACAUGAGGAUCACCCAUGUAUUACCGGGAAGGAGCGCGUAAGGACGCAGGUAGGUCGCUCGGCGUCGUGCUGUAAAGCACGACGA [#1 Same State - Arginine A Attempt #24 (HarryS)] on MS2 coat protein? 14.9

Please provide the recorded apparent KD of MS2 coat protein for UUAAUCUAUAAUGAAAACAUUAUAGCAGAAGGAGCGUGAUAAAACACAGGUAGGUCGCUGAAGGGAACAUGAGGAUCACCCAUGU [AstrosSSArgA#12] , tested on MS2 coat protein. 28.7

====

Listed sequences paired with reported apparent KD of MS2 coat protein
- Test system: MS2 coat protein
- procedure-details: apparent KD of MS2 coat protein; designed switch direction (-1 OFF switch, 1 ON switch): 1; higher = weaker reporter binding
- applied-conditions: input ligand: FMN 200 uM
Number only, in nM; omit the unit.

UGGCUCAGACGAGGAUAUAUGUGGUCACAUGAGGAUCACCCAUGUCUCGAGCUUCGGCUCGAGGCAUAGAAGGCGUCUGAGCCA [SSNG2/5-A2] (Eterna round: R96, puzzle: Same State NG 2) = 1300
GCUUCGGCGGUAGGAUAUCUAGGAUAUGGGAAGAGCUAAGCUUGGAAGUCACUUCACCCAGAAGGAGAGAAGGACACCUUCGGG [pwkr ssNG2 2FMN + F9.4] (Eterna round: R96, puzzle: Same State NG 2) = 230
AUAAAAGAAAGAAACACAUGAGGAUCACCCAUGUAACGACUACAGGAUAUGCUGCACAGUCCAAAGCAGAAGGGUGGUCAAAAC [Qulaesed] (Eterna round: R96, puzzle: Same State NG 3) = 280
AAACGCAGCAUAUCGCUGCGACAUGAGGAUCACCCAUGUACACAGGAUAUCGCAGCAUACCGCCGCGAGAAGGGUGAUCAAGAC [Anonlete] (Eterna round: R96, puzzle: Same State NG 3) = 99.3
AUUAUUAAUGCAGGAUAUGAUUAACAUGAGGAUCACCCAUGUGGUGUUGUGAGUAAGGAGAGUGAUCAGAAGGGCAUUUCUUUU [JMF's solution 11] (Eterna round: R96, puzzle: Same State NG 2) = 468

Now, please, on to the next sequence.
Lab note: need apparent KD of MS2 coat protein with MS2 coat protein for entry ACAUGAGAGAAAGGAUAUCAUGUACCUACAUGUGACAUGAGGAUCACCCAUGUGGUAAGUAUGAGUGAGAAGGUUCAGAUAUGU [Equivalence 34 - Jieux - Same State NG 2] (Eterna round: R96, puzzle: Same State NG 2) , please look it up. 44.4
